- Target Of Assay: T1, ADF peptide complexed with HLA-A*02:01 on T2 cells (human)
- T1 construct: whole, on cells
- Assay Remarks: flow cytometry, peptide-loaded T2 cells;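 further: binding of single-chain Fv antibody constructs, raised in XenoMouse, to peptide-pulsed T2 cells measured by flow cytometry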

{"Binder": "18181-G10 (scFv, scFv in bacterial lysate, detected with anti-Flag M2) scFv: EVQLLESGPGLVKPSQTLSLTCTVSGDSISSNPYYWSWIRQLPGKGLEWIGYISYSGSTFYNPSLKSRVTISVDTSKNQFSLNLTSVTAADTAVYYCARDRLWFGVLNYYYGMDVWGLGTTVTVSSGGGGSGGGGSGGGGSELVMTQSPLSLPVTPGEPASISCRSSQSLLHSTGYNYVDWYLQKPGQSPQLLIYLGSNRASGVPDRFSGSGSGTDFTLKISRVEAEDVGFYYCMQALQTPRTFGQGTKVEIK", "Signal/background": 1}
{"Binder": "18181-E2 (scFv, scFv in bacterial lysate, detected with anti-Flag M2) scFv: EVQLLESGPGLVKPSQTLSLTCTVSGDSISSNPYYWSWIRQHPGKGLEWIGYISHSGSTYYNPSLKSRVTISVDTSKNQFSLNLTSVTAADTAVYYCARDRLWFGVLNYYYGMDVWGLGTTVTVSSGGGGSGGGGSGGGGSELVMTQSPLSLPVTPGEPASISCRSSQSLLHSSGYNYLDWYLQKPGQSPQLLIYLGSNRASGVPDRFSGSGSGTDFTLKISKVEAEDVGVYYCMQALQTPRTFGQGTKVDIK", "Signal/background": 1.1}
{"Binder": "18081-E7 (scFv, scFv in bacterial lysate, detected with anti-Flag M2) scFv: EVQLLESGPGLVKPSETLSLTCTVSGDSISSSRYYWGWIRQPPGKGLEWIGSIYYSGSTYYNPSLKSRVTISVDTSKNQFSLKLSSVTAADTAVYYCARGIFGVITYFDYWGQGTLVTVSSGGGGSGGGGSGGGGSELVMTQTPDSLAVSLGERATINCKSSQSVLYSSNNKNYLAWYQQKPGQPPKLLIYWASTRESGVPDRFSGSGSGTDFTLTISSLQAEDVAVYYCQQYYSTPLTFGGGTKVEIK", "Signal/background": 1}
